The reported measurements were obtained from patent US20260042764A1.

IC50 values by entry
Biological target: Avi-KRAS G12C (2-169) GTP/RAF1 RBD-3xFLAG (51-131) (Homo sapiens, UniProt P01116, G12C)
Construct: Avi-KRAS G12C (2-169)
Sequence (P01116 2-169 isoform P01116-2 G12C): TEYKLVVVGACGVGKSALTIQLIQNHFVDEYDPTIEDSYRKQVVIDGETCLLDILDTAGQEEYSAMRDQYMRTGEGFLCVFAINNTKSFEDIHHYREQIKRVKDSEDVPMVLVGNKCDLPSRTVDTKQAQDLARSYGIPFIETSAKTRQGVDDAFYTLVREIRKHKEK
Experiment: Raf1-KRAS G12C-GTP disruption HTRF assay (Biological Example 3)
Type: binding
Details: KRAS G12C, GTP-loaded

Guide cases for IC50, answers given:
CCN(c1nc(OC[C@@]23CCCN2C[C@H](F)C3)nc2c(F)c(-c3ccc(F)c4sc(N)c(C#N)c34)c(C(F)(F)F)cc12)[C@H]1CC(=O)N2CCC[C@H]12 (atropisomer, axis not shown) [Compound 880] :: ≤ 100 nM
CCN(c1nc(OC[C@@]23CCCN2C[C@H](F)C3)nc2c(F)c(-c3ccc(F)c4sc(N)c(C#N)c34)c(C(F)(F)F)cc12)[C@H]1CCCN(C)C1=O (atropisomer, axis not shown) [Compound 967] :: 1000 to 10000 nM

# input molecule: CCN(c1nc(OC[C@@]23CCCN2C[C@H](F)C3)nc2c(F)c(-c3ccc(F)c4sc(N)c(C#N)c34)c(C(F)(F)F)cc12)[C@H]1C[C@H](COC)N(C(=O)C2CC2)C1 (atropisomer, axis not shown) [Compound 696] ; wanted: its IC50
100 to 1000 nM

Next molecule up: CN(Cc1cnccn1)c1nc(OC[C@@]23CCCN2C[C@H](F)C3)nc2c(F)c(-c3ccc(F)c4sc(N)c(C#N)c34)c(C(F)(F)F)cc12 (atropisomer, axis not shown) [Compound 872]
100 to 1000 nM

Another molecule to check: CCN(c1nc(OC[C@@]23CCCN2C[C@H](F)C3)nc2c(F)c(-c3ccc(F)c4sc(N)c(C#N)c34)c(C(F)(F)F)cc12)[C@H]1CCN(C(=O)C(C)C)C1 (single isomer, unassigned) [Compound 469]
≤ 100 nM

Let us now turn to CCN(c1nc(OC[C@@]23CCCN2C[C@H](F)C3)nc2c(F)c(-c3ccc(F)c4sc(N)c(C#N)c34)c(C(F)(F)F)cc12)[C@H]1CCN(C(=O)c2cnc(C)s2)C1 (atropisomer, axis not shown) [Compound 902]
100 to 1000 nM
